Can you tell me Cocklebur plant response rating for the items I'm about to list?
System: cocklebur
Experiment: Test B pre/postemergence cocklebur
Format: in vivo, Xanthium strumarium
Details: Postemergence, Rate 250 g/ha; scale of 0 to 10, 0 is no effect, 10 is complete control
Keep it simple and answer with nothing but the number.

Measured on cocklebur, `C=C(Cn1c(=O)on(C(=O)N(c2ccccc2)C(C)C)c1=O)c1cccc(Cl)n1` has a documented Cocklebur plant response rating of 0

Measured on cocklebur, `CC(C)N(C(=O)n1oc(=O)n(C(C)C)c1=O)c1ccncc1` has a documented Cocklebur plant response rating of 0

Measured on cocklebur, `CC(C)N(C(=O)n1oc(=O)n(CC[N+](=O)[O-])c1=O)c1ccc(F)cc1F` has a documented Cocklebur plant response rating of 0

Measured on cocklebur, `COCCn1c(=O)on(C(=O)N(c2ccc(F)cc2F)C(C)C)c1=O` has a documented Cocklebur plant response rating of 6

###

Test system: morningglory
Assay: Test B pre/postemergence morningglory
Assay type: in vivo, Ipomoea hederacea
Conditions: Postemergence, Rate 125 g/ha; scale 0 to 10, 0 is no effect, 10 is complete control
Description: […] At the same time, these crop and weed species were also treated with postemergence applications of test chemicals formulated in the same manner. […] Treated plants and controls were maintained in a greenhouse for twelve to sixteen days, after which all species were compared to controls and visually evaluated. […]
Can you tell me Morningglory plant response rating for the items I'm about to list?

Measured on morningglory, `CC(C)N(C(=O)n1oc(=O)n(CCCF)c1=O)c1ccccc1` has a documented Morningglory plant response rating of 10

Measured on morningglory, `CC(C)N(C(=O)n1oc(=O)n(CCCCF)c1=O)c1ccc(F)cc1F` has a documented Morningglory plant response rating of 4

Measured on morningglory, `CC(C)N(C(=O)n1oc(=O)n(C[Si](C)(C)C)c1=O)c1ccccc1` has a documented Morningglory plant response rating of 9

Measured on morningglory, `CC(C)N(C(=O)n1oc(=O)n(CC(=O)C2CC2)c1=O)c1ccccc1` has a documented Morningglory plant response rating of 7

Measured on morningglory, `COC(=O)CCCn1c(=O)on(C(=O)N(c2ccc(F)cc2F)C(C)C)c1=O` has a documented Morningglory plant response rating of 3

Measured on morningglory, `CCN(CC)C(=O)Cn1c(=O)on(C(=O)N(c2ccccc2)C(C)C)c1=O` has a documented Morningglory plant response rating of 10

Measured on morningglory, `CC(C)N(C(=O)n1oc(=O)n(CC2CCC2)c1=O)c1ccc(F)cc1F` has a documented Morningglory plant response rating of 4

###

Tested on: bedstraw
Experiment: Test B pre/postemergence bedstraw
Format: in vivo, Galium aparine
Conditions: Postemergence, Rate 250 g/ha; scale 0 to 10, 0 no effect, 10 complete control
Can you tell me Bedstraw plant response rating for the items I'm about to list?
Keep it simple and answer with nothing but the number.

Memo: `CC(C)N(C(=O)n1oc(=O)n(C2CCCCC2)c1=O)c1ccc(F)cc1F` , reported Bedstraw plant response rating: 4

Memo: `CCN(CC)C(=O)n1oc(=O)n(Cc2cccs2)c1=O` , reported Bedstraw plant response rating: 0

Memo: `Cc1cccc(Cl)c1-n1c(=O)on(C(=O)N(c2ccc(Cl)cc2)C(C)C)c1=O` , reported Bedstraw plant response rating: 4

Memo: `Cc1cc(C)c(-n2c(=O)on(C(=O)N(c3ccc(F)cc3)C(C)C)c2=O)c(C)c1` , reported Bedstraw plant response rating: 7
